These data points were gathered from ChEMBL document CHEMBL5126627.

- Test system: Pseudomonas aeruginosa
- measurement protocol: Binding affinity to Pseudomonas aeruginosa LpxC assessed as binding constant (Koff) incubated for 18 hrs by fluorescence based assay
test readout: K (s⁻¹)
Return type: number; implicit unit s⁻¹.

molecule | assay target | test readout | reported value
CC(CCn1ccc(-c2ccc(NC(=O)Cc3ccccc3)cc2)cc1=O)(C(=O)NO)S(C)(=O)=O (racemic) | Pseudomonas aeruginosa | K | 0.0043
C=CCn1cc(-c2ccc(-c3ccn(CCC(C)(C(=O)NO)S(C)(=O)=O)c(=O)c3)cc2)nn1 (racemic) | Pseudomonas aeruginosa | K | 0.00022
CC(CCn1ccc(-c2ccc(-c3cn(CC4CC4)nn3)cc2)cc1=O)(C(=O)NO)S(C)(=O)=O (racemic) | Pseudomonas aeruginosa | K | 0.00025

From here, focus on the item given below.
For the molecule shown here, CC(CCn1ccc(-c2ccc(-c3cn(Cc4ccccc4)nn3)cc2)cc1=O)(C(=O)NO)S(C)(=O)=O (racemic) , give the reported K. 0.00032

###

Listed molecules paired with reported Time
- Tested on: Pseudomonas aeruginosa
- measurement protocol: Antibacterial activity against Pseudomonas aeruginosa PAO1 assessed as post antibiotic effect by measuring time required for increase in 1 log10 CFU/ml of bacteria at 4X MIC incubated for 1 hr followed by compound washout
- Assay type: functional
Write the answer as a number in h, unit excluded.

molecule | Time (h)
CC(CCn1ccc(-c2ccc(-c3cn(CC45CC(C4)C5)nn3)cc2)cc1=O)(C(=O)NO)S(C)(=O)=O (racemic) | 4
CC(CCn1ccc(-c2ccc(-c3cn(Cc4ccc(F)cc4)nn3)cc2)cc1=O)(C(=O)NO)S(C)(=O)=O (racemic) | 1.7
CC(CCn1ccc(-c2ccc(-c3cn(CC4CC4)nn3)cc2)cc1=O)(C(=O)NO)S(C)(=O)=O (racemic) | 1.6

Entry CC(CCn1ccc(-c2ccccc2)cc1=O)(C(=O)NO)S(C)(=O)=O (racemic) : reported Time = ? 0.7

What does the record list as Time for COc1ccc(-c2ccc(CNC3(C(=O)NO)CCS(=O)(=O)CC3)cc2)c(F)c1 ? 1

Time for CC(CCn1ccc(-c2ccc(-n3nccn3)cc2)cc1=O)(C(=O)NO)S(C)(=O)=O (racemic) ? 1.4

###

- measurement protocol: Binding affinity to Pseudomonas aeruginosa LpxC assessed as inhibition constant incubated for 18 hrs by fluorescence based assay
test readout: Ki (nM)
Quick reminder: number only, in nM, skip the unit.

Here's what some known entries look like.
compound | Ki, nM
CC(CCn1ccc(-c2ccc(NC(=O)Cc3ccccc3)cc2)cc1=O)(C(=O)NO)S(C)(=O)=O (racemic) | 0.0954
CC(CCn1ccc(-c2ccc(C(=O)NCc3ccccc3)cc2)cc1=O)(C(=O)NO)S(C)(=O)=O (racemic) | 0.274
CC(CCn1ccc(-c2ccc(-c3cn(Cc4ccccn4)nn3)cc2)cc1=O)(C(=O)NO)S(C)(=O)=O (racemic) | 0.0055

Give its Ki value. Item: CC(CCn1ccc(-c2ccc(-c3cn(CC4CC4)nn3)cc2)cc1=O)(C(=O)NO)S(C)(=O)=O (racemic) 0.0102

Name the recorded Ki for CC(CCn1ccc(-c2ccc(-c3cn(Cc4ccc(F)cc4)nn3)cc2)cc1=O)(C(=O)NO)S(C)(=O)=O (racemic) . 0.008

Requested read-out: Ki. Entry: CC(CCn1ccc(-c2ccc(-c3cnnn3Cc3ccccc3)cc2)cc1=O)(C(=O)NO)S(C)(=O)=O (racemic) 0.0677

Given the entry CC(CCn1ccc(-c2ccc(-c3cn(CC45CC(C4)C5)nn3)cc2)cc1=O)(C(=O)NO)S(C)(=O)=O (racemic) , report its measured Ki. 0.0021

###

- System: Pseudomonas aeruginosa
- measurement protocol: Binding affinity to Pseudomonas aeruginosa LpxC assessed as binding constant (Koff) incubated for 18 hrs by fluorescence based assay
test readout: K (s⁻¹)
Your answer is read as s⁻¹, so omit the unit and give the number.

See these solved cases before continuing.
compound | test readout | reported value
CC(CCn1ccc(-c2ccc(-c3cn(Cc4ccncn4)nn3)cc2)cc1=O)(C(=O)NO)S(C)(=O)=O (racemic) | K | 0.00017
CC(CCn1ccc(-c2ccc(-c3cn(Cc4cccnc4)nn3)cc2)cc1=O)(C(=O)NO)S(C)(=O)=O (racemic) | K | 0.00014
COc1ccc(-c2ccc(CNC3(C(=O)NO)CCS(=O)(=O)CC3)cc2)c(F)c1 | K | 0.00053
CC(CCn1ccc(-c2ccc(-c3cn(CC4CCCCC4)nn3)cc2)cc1=O)(C(=O)NO)S(C)(=O)=O (racemic) | K | 0.00017

Field request: K | item: COc1ccc(-c2ccc(CNC3(C(=O)NO)CCS(=O)(=O)CC3)cc2F)cc1 0.00049

Which K value belongs to CC(CCn1ccc(-c2ccc(-c3cnnn3Cc3ccccc3)cc2)cc1=O)(C(=O)NO)S(C)(=O)=O (racemic) ? 0.00187

Find the recorded K belonging to CC(CCn1ccc(-c2ccc(CN3CCOCC3)cc2)cc1=O)(C(=O)NO)S(C)(=O)=O (racemic) and report it. 0.0035

Which K value belongs to CC(CCn1ccc(-c2ccc(-c3cn(Cc4ccc(F)cc4)nn3)cc2)cc1=O)(C(=O)NO)S(C)(=O)=O (racemic) ? 0.00025

Field request: K | item: CC(CCn1ccc(-c2ccc(-c3cn(CC45CC(C4)C5)nn3)cc2)cc1=O)(C(=O)NO)S(C)(=O)=O (racemic) 0.00015

Given the entry CC(CCn1ccc(-c2ccc(C(=O)NCc3ccccc3)cc2)cc1=O)(C(=O)NO)S(C)(=O)=O (racemic) , report its measured K. 0.0021

Recorded K of CC(CCn1ccc(-c2ccc(-c3cn(Cc4ccc([N+](=O)[O-])cc4)nn3)cc2)cc1=O)(C(=O)NO)S(C)(=O)=O (racemic) , please. 0.00021

Look at this compound and give its reported K. CC(CCn1ccc(-c2ccc(-c3cn(CCO)nn3)cc2)cc1=O)(C(=O)NO)S(C)(=O)=O (racemic) 0.00018
